Reference source for all entries: patent US9090628B2

targetOrTestSystem: p110 delta (Homo sapiens (Human))
Sequence (O00329 whole entry, canonical isoform): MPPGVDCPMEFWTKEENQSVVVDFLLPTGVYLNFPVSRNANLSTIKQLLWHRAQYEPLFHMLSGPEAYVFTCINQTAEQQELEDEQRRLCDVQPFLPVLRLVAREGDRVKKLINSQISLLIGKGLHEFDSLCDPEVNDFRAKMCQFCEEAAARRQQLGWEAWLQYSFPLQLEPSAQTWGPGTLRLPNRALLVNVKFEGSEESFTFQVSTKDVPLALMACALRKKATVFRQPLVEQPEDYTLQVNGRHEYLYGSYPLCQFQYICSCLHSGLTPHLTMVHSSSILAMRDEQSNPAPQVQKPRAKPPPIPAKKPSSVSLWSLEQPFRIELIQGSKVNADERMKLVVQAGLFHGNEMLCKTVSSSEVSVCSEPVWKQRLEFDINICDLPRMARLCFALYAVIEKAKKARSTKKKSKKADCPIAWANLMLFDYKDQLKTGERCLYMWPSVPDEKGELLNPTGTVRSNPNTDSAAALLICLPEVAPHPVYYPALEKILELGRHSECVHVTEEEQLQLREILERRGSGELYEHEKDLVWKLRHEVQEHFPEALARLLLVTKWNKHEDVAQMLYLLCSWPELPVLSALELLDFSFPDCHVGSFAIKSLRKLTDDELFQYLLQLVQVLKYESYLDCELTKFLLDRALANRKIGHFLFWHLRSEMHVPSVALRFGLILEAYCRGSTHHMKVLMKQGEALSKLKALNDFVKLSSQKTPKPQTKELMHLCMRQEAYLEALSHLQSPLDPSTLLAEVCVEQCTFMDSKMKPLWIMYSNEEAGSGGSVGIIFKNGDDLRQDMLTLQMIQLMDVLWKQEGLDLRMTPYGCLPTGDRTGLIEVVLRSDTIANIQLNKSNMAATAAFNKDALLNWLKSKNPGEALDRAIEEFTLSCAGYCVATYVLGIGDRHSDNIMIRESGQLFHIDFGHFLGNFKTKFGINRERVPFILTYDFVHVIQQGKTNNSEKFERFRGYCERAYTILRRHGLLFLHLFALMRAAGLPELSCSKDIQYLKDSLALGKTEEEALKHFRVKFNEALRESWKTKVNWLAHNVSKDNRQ
Sequence (P27986 whole entry partner, canonical isoform): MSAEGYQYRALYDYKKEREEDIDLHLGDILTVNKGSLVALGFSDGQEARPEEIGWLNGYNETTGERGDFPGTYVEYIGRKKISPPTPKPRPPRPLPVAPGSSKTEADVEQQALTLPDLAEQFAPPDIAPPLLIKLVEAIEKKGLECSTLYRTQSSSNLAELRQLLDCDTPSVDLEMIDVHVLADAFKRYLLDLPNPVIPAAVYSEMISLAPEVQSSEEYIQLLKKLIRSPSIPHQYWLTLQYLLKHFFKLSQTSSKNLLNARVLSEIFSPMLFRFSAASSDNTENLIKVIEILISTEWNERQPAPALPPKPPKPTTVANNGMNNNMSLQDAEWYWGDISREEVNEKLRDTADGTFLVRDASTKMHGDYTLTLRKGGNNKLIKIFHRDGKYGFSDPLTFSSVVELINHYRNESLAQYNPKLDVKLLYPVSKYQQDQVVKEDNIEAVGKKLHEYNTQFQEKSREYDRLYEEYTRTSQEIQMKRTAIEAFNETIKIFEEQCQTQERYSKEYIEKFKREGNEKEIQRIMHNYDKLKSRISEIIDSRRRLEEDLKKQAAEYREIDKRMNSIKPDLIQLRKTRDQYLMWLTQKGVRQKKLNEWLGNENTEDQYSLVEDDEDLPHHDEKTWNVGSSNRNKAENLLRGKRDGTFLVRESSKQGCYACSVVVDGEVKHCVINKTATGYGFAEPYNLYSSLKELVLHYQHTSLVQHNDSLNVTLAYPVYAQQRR
assayName: PI3K isoform inhibition assay, p110 delta (fluorescence polarization displacement)
Type: biochemical
pIC50: −log10 of the molar value.
endpoint: pIC50

Check out these entries, answers already filled in.
{"columns": ["compound", "pIC50"],
 "data": [
  ["Cc1nc(-c2cn3c(n2)-c2ccc(-c4ccnn4C4CCCN(Cc5ccccc5)C4)cc2OCC3)n(C(C)C)n1 (stereo not shown)", 8.07],
  ["Cc1nc(-c2cn3c(n2)-c2ccc(-c4cnc(C)n4C4CCCN(C(C)C)C4)cc2OCC3)n(C(C)C)n1 (stereo not shown)", 8.19],
  ["Cc1nc(-c2cn3c(n2)-c2ccc(-c4cnn(C)c4C4CC(N(C)C(C)C)CCO4)cc2OCC3)n(C(C)C)n1 (stereo not shown) [Example 344]", 8.91]
]}

[P] Cc1nc(-c2cn3c(n2)-c2ccc(N4CCCC45CCCN(C)C5)cc2OCC3)n(C(C)C)n1 (stereo not shown) [Example 320]
[Q] Cc1nc(-c2cn3c(n2)-c2ccc(-c4cnn(C(C)C)c4CN4CCN(C)CC4)cc2OCC3)n(C(C)C)n1
**Q:** Input pair: P , Q . Output: entry with lower pIC50. # reply format: chosen label
**A:** Q
